- TESTED ON: recombinant human EphB3 kinase (Homo sapiens)
- Sequence (P54753 633-896 limits assumed): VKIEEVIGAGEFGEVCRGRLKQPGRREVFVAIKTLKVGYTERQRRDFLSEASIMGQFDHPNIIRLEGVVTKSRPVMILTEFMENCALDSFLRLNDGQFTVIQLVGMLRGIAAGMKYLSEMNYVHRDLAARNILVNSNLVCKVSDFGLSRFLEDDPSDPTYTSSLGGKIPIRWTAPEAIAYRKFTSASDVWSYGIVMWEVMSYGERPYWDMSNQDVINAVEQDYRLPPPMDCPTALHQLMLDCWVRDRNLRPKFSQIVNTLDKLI
- MEASUREMENT DESCRIPTION: IC50 for inhibiting EphB3 phosphorylation of the BTK peptide (33P radiometric assay, assay of Examples 1-6)
- Format: biochemical
- SETUP CONDITIONS: inhibiting EphB3 phosphorylation of the BTK peptide (SEQ ID NO: 4); Table 3 imidazo[1,2-a]pyridine compounds
pIC50: −log10 of the molar value.
RECORDED ENDPOINT: pIC50

Record request: pIC50 value, item O=C(Nc1ccccc1Cl)c1cnc2ccc(Br)cn12
> 6.70

Taken from patent US8927545B2.
